Target: human CCR2 (CC-Chemokine Receptor 2) (human, UniProt P41597 1-374)
Sequence (P41597 whole entry): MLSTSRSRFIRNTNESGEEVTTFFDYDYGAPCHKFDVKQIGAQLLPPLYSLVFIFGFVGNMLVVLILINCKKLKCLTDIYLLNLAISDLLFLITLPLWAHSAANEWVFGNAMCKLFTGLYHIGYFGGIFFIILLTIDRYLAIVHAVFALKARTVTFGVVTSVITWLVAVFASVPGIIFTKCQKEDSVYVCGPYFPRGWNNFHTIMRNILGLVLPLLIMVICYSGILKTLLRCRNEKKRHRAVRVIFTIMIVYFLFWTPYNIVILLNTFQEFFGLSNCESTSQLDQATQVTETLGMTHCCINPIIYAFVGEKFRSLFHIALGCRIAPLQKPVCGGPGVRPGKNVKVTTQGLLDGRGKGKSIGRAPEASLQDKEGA
Assay: cell-based or functional assay
Measured metric: IC50 in chemotaxis assay using human THP-1 cells, ligand MCP-3 (1.1 nM)
Reply numerically in nM, unit not repeated.

D1 (antibody, human IgG1, V domains shown, also called CCR2 D1 IgG; anti-CCR2 D1 antibody) VH: EVQLVQSGAEVKKPGASVKVSCKASGYTFTGYHMHWVRQAPGQGLEWMGWINPNSGVTKYAQKFQGRVTMTRDTSINTAYMELSRLRFDDTDVYYCATGGFGYWGEGTLVTVSS VL: LPVLTQPPSVSKGLRQTATLTCTGNSNNVGNQGAAWLQQHQGQPPKLLSYRNHNRPSGVSERFSPSRSGDTSSLTITGLQPEDEADYYCLAWDSSLRAFVFGTGTKLTVL ... 0.11

Q: Give the value of IC50 in chemotaxis assay using human THP-1 cells, ligand MCP-3 (1.1 nM) reported for the following: D1-1/LO (antibody, V domains shown, The suffix '/LO' is not explained) VH: QVQLVQSGAEVKKPGASVKVSCKASGYTFTGYYMHWVRQAPGQGLEWMGWINPNSGVTKYAQKFQGRVTMTRDTSTSTVYMELSSLRSEDTAVYYCATGGFGYWGEGTLVTVSS VL: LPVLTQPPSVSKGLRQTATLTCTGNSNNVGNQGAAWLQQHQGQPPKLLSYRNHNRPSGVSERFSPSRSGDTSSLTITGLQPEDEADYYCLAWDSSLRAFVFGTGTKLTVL
Ans: 0.1

Q: Give the value of IC50 in chemotaxis assay using human THP-1 cells, ligand MCP-3 (1.1 nM) reported for the following: 1G11 (antibody, human IgG1, V domains shown) VH: EVQLVESGAEVKKPGASVKVSCKASGYIFTGYYIHWVRQAPGQGLEWMGWINPNNGVTKYAEKFQGRVTMTRDTSITTAYMDLSRLRSDDTAIYYCATGGFEYWGQGTLVTVSS VL: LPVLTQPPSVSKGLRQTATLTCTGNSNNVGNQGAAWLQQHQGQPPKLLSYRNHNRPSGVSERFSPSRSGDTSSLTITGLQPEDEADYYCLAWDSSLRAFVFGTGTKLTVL
Ans: 0.07

Q: Give the value of IC50 in chemotaxis assay using human THP-1 cells, ligand MCP-3 (1.1 nM) reported for the following: 1B2 (antibody, human IgG1, V domains shown) VH: EVQLVESGAEVKKPGASVKVSCKASGYTFTGYYMNWVRQAPGQGLEWMGWINPNSGGTKYAQKFQGRVTMTSDTSINTAYMELSRLRYDDTAVYYCATGGFQHWGQGTLVTVSS VL: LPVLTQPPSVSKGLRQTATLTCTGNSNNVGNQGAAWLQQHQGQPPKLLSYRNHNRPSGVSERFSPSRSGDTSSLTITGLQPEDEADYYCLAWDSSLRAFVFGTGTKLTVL
Ans: 0.04
